Tested on: isolated perfused rat hearts
Assay: Ex vivo isolated perfused rat heart (Langendorff) assay, load independent inotropic/lusitropic effects
Conditions: relaxation, percent change over vehicle
MEASURED_METRIC: Isolated Heart Assay dP/dtmin (%)
The reply should be a number in %, with the unit left off.

// query Give the reported Isolated Heart Assay dP/dtmin (%) for COc1cccc(OC)c1-n1c(NS(=O)(=O)CCc2ccc(F)cc2C#N)nnc1-c1ccco1 [Example 210.0] (system: isolated perfused rat hearts).
// result 34.0

// query Give the reported Isolated Heart Assay dP/dtmin (%) for COc1cccc(OC)c1-n1c(NS(=O)(=O)[C@@H](C)[C@H](O)c2ncc(F)cn2)nnc1-c1ccc(C)o1 [Example 115.0] (system: isolated perfused rat hearts).
// result 34.7

// query Give the reported Isolated Heart Assay dP/dtmin (%) for COc1cccc(OC)c1-n1c(NS(=O)(=O)[C@@H](C)[C@H](OC)c2ncc(C)cn2)nnc1-c1ccc(C)o1 [Example 261.0] (system: isolated perfused rat hearts).
// result 53.8

// query Give the reported Isolated Heart Assay dP/dtmin (%) for COc1cccc(OC)c1-n1c(NS(=O)(=O)[C@H](C)Cc2ccc(Cl)cc2)nnc1-c1ccco1 (single isomer, unassigned) [Example 205.0] (system: isolated perfused rat hearts).
// result 20.5

// query Give the reported Isolated Heart Assay dP/dtmin (%) for COc1cccc(OC)c1-n1c(NS(=O)(=O)CCc2ccc(Cl)cc2)nnc1-c1ccco1 [Example 111.0] (system: isolated perfused rat hearts).
// result 24.9

// query Give the reported Isolated Heart Assay dP/dtmin (%) for COc1cccc(OC)c1-n1c(NS(=O)(=O)CCc2ncc(C)cn2)nnc1-c1ccc(C)o1 [Example 26.0] (system: isolated perfused rat hearts).
// result 11.1

// query Give the reported Isolated Heart Assay dP/dtmin (%) for COc1cccc(OC)c1-n1c(NS(=O)(=O)[C@@H](C)Cc2ncc(F)cn2)nnc1-c1ccc(C)o1 (single isomer, unassigned) [Example 108.0] (system: isolated perfused rat hearts).
// result 30.1

// query Give the reported Isolated Heart Assay dP/dtmin (%) for COc1cccc(OC)c1-n1c(NS(=O)(=O)CCN2C(=O)N(C)CC[C@@H]2C)nnc1-c1ccc(C)o1 (single isomer, unassigned) [Example 204.0] (system: isolated perfused rat hearts).
// result 29.0

// query Give the reported Isolated Heart Assay dP/dtmin (%) for COc1cccc(OC)c1-n1c(NS(=O)(=O)CCc2ccc(F)cn2)nnc1-c1ccco1 [Example 41.0] (system: isolated perfused rat hearts).
// result 22.7

// query Give the reported Isolated Heart Assay dP/dtmin (%) for COc1cccc(OC)c1-n1c(NS(=O)(=O)[C@@H](C)[C@H](C)c2ncc(F)cn2)nnc1-c1ccc(C)o1 [Example 56.0] (system: isolated perfused rat hearts).
// result 24.9

// query Give the reported Isolated Heart Assay dP/dtmin (%) for COc1cccc(OC)c1-n1c(NS(=O)(=O)[C@@H](C)Cc2ncc(F)cn2)nnc1-c1ccco1 (single isomer, unassigned) [Example 51.0] (system: isolated perfused rat hearts).
// result 33.8

====

System: isolated perfused rat hearts
Assay: Ex vivo isolated perfused rat heart (Langendorff) assay, load independent inotropic/lusitropic effects
Conditions: contractility, percent change over vehicle
MEASURED_METRIC: Isolated Heart Assay dP/dtmax (%)
The reply should be a number in %, with the unit left off.

// query Given the compound COc1cccc(OC)c1-n1c(NS(=O)(=O)CCc2ccc(Cl)cc2)nnc1-c1ccco1 [Example 111.0] , what is its reported Isolated Heart Assay dP/dtmax (%)?
// result 19.5

// query Given the compound COc1cccc(OC)c1-n1c(NS(=O)(=O)[C@@H](C)[C@H](C)c2ncc(F)cn2)nnc1-c1ccc(C)o1 [Example 56.0] , what is its reported Isolated Heart Assay dP/dtmax (%)?
// result 23.0

// query Given the compound COc1cccc(OC)c1-n1c(NS(=O)(=O)CCc2ncc(C)cn2)nnc1-c1ccc(C)o1 [Example 26.0] , what is its reported Isolated Heart Assay dP/dtmax (%)?
// result 10.20

// query Given the compound COc1cccc(OC)c1-n1c(NS(=O)(=O)[C@@H](C)Cc2ncc(F)cn2)nnc1-c1ccc(C)o1 (single isomer, unassigned) [Example 108.0] , what is its reported Isolated Heart Assay dP/dtmax (%)?
// result 38.8

// query Given the compound COc1cccc(OC)c1-n1c(NS(=O)(=O)[C@@H](C)[C@H](O)c2ncc(F)cn2)nnc1-c1ccc(C)o1 [Example 115.0] , what is its reported Isolated Heart Assay dP/dtmax (%)?
// result 32.6

====

I'd appreciate it if you could supply pEC50 values for the items below.
Target: APJ receptor (Homo sapiens (Human))
Experiment: [35S]GTPγS binding assay on membranes from CHO cells stably expressing human APJ receptor
Conditions: membranes of CHO cells stably expressing human APJ receptor, means of several independent experiments, read-out: Activity hAPJ SPA EC50 IP
By convention, pEC50 is the negative base-10 log of a molar concentration.

// query Given the compound COc1cccc(OC)c1-n1c(NS(=O)(=O)[C@@H](C)[C@](C)(N)c2ncc(F)cn2)nnc1-c1ccc(C)o1 (single isomer, unassigned) [Example 246.0] , what is its reported pEC50?
// result 8.85

// query Given the compound COc1cccc(OC)c1-n1c(NS(=O)(=O)[C@@H](C)[C@H](O)c2ccc(C#N)cc2F)nnc1-c1ccc(C)o1 [Example 75.0] , what is its reported pEC50?
// result 9.26

// query Given the compound COc1cccc(OC)c1-n1c(NS(=O)(=O)[C@H]2COc3cc(Cl)cnc3C2)nnc1-c1ccco1 (racemic) [Example 181.0] , what is its reported pEC50?
// result 8.23

// query Given the compound COc1cccc(OC)c1-n1c(NS(=O)(=O)[C@H](C)Cc2ccc(Cl)cn2)nnc1-c1ccco1 (single isomer, unassigned) [Example 11.0] , what is its reported pEC50?
// result 9.85

// query Given the compound COc1cccc(OC)c1-n1c(NS(=O)(=O)[C@H]2CCCN(c3ncc(F)cn3)C2)nnc1-c1ccco1 [Example 206.0] , what is its reported pEC50?
// result 8.32

// query Given the compound COc1cccc(OC)c1-n1c(NS(=O)(=O)[C@@H](C)[C@@H](O)c2ccc(C#N)cn2)nnc1-c1ccc(C)o1 (single isomer, unassigned) [Example 10.0] , what is its reported pEC50?
// result 9.96

// query Given the compound COCC(COC)n1c(NS(=O)(=O)[C@@H](C)[C@H](OC)c2ncc(Cl)cn2)nnc1-c1ccc(C)o1 [Example 387.0] , what is its reported pEC50?
// result 8.68

// query Given the compound C[C@@H](Cc1ncc(F)cn1)S(=O)(=O)Nc1nnc(-c2ccco2)n1-c1ccccc1F (racemic) [Example 312.0] , what is its reported pEC50?
// result 6.68

// query Given the compound COc1cnc(N2C[C@H](O)C[C@H](S(=O)(=O)Nc3nnc(-c4ccc(C)o4)n3-c3c(OC)cccc3OC)C2)nc1 (racemic) [Example 335.0] , what is its reported pEC50?
// result 9.28

// query Given the compound COc1cccc(OC)c1-n1c(NS(=O)(=O)[C@@H](C)Cc2ncc(F)cn2)nnc1-c1ccc(C)o1 (racemic) [Example 94.0] , what is its reported pEC50?
// result 9.77

// query Given the compound COc1cccc(OC)c1-n1c(NS(=O)(=O)[C@H]2C[C@H](OC)CN(c3ncc(F)cn3)C2)nnc1-c1ccco1 (single isomer, unassigned) [Example 178.0] , what is its reported pEC50?
// result 8.52

// query Given the compound COc1cccc(OC)c1-n1c(NS(=O)(=O)[C@@H](C)Cc2ncc(Cl)cc2C(N)=O)nnc1-c1ccco1 (single isomer, unassigned) [Example 17.0] , what is its reported pEC50?
// result 9.59

// query Given the compound CCc1ccc(-c2nnc(NS(=O)(=O)CCc3ncc(F)cn3)n2-c2c(OC)cccc2OC)o1 [Example 98.0] , what is its reported pEC50?
// result 9.35

====

I'd appreciate it if you could supply EC50 values for the items below.
Molecular target: APJ receptor (Homo sapiens (Human), UniProt P35414)
Sequence (P35414 whole entry): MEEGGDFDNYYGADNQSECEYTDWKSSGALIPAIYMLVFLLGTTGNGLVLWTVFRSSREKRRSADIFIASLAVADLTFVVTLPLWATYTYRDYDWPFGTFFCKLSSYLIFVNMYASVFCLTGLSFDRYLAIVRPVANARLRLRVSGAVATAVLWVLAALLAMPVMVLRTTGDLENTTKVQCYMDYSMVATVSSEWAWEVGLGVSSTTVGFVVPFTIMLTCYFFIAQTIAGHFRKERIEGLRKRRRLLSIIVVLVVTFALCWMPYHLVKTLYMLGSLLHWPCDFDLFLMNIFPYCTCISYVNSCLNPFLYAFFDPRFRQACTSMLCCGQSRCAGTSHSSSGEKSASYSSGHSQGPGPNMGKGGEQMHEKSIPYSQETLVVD
Test: [35S]GTPγS binding assay on membranes from CHO cells stably expressing human APJ receptor
Conditions: membranes of CHO cells stably expressing human APJ receptor, means of several independent experiments, read-out: Activity hAPJ SPA EC50 IP
Procedure: The human APJ receptor was cloned by polymerase chain reaction and the gene encoding the receptor was subcloned in pFLAG-CMV™-3 expression vector (Sigma, Saint Louis, Mo. USA) in-house at Amgen. […] The optimum experimental conditions for the concentrations of GDP, MgCl2, and NaCl in the assay buffer were initially determined. […] Nonspecific binding was determined in the presence of 100 μM GTPγS and was always less than 0.2% of total binding. […]
The reply should be a number in pM, with the unit left off.

// query Give the reported EC50 for COc1cccc(OC)c1-n1c(NS(=O)(=O)[C@@H](C)Cc2ncc(F)c3[nH]cnc23)nnc1-c1ccco1 (single isomer, unassigned) [Example 5.0] (system: APJ receptor (Homo sapiens (Human), UniProt P35414)).
// result 950

// query Give the reported EC50 for COc1cccc(OC)c1-n1c(NS(=O)(=O)[C@H](C)[C@H](OC)c2ncc(F)cn2)nnc1-c1ccc(C)o1 (single isomer, unassigned) [Example 122.0] (system: APJ receptor (Homo sapiens (Human), UniProt P35414)).
// result 220

// query Give the reported EC50 for COc1cccc(OC)c1-n1c(NS(=O)(=O)[C@@H](C)[C@H](OC)c2ncc(C)cn2)nnc1-c1ccc(C)o1 [Example 261.0] (system: APJ receptor (Homo sapiens (Human), UniProt P35414)).
// result 130

Where these numbers come from: patent US10736883B2
